System: CrGluCl-B-Q279E-Y361F-Q327T triple mutant
Test: Voltage-clamp of oocytes expressing CrGluCl-B triple mutant
Assay type: cell-based, Caligus rogercresseyi
Settings: read-out: EC50 glutamate
pEC50: −log10 of the molar value.

- molecule: "N[C@@H](CCC(=O)O)C(=O)O [glutamate, L-glutamate]"
  studyTarget: "CrGluCl-B-Q279E-Y361F-Q327T triple mutant"
  pEC50: 3.99

----------
Tested on: coexpressed CrGluCl-E:CrGluCl-C
Test: Voltage-clamp of oocytes coexpressing CrGluCl-E and CrGluCl-C
Format: cell-based, Caligus rogercresseyi
Details: C:E ratio 1:1
Description: Adult female Xenopus laevis frogs were anaesthetized by immersion in a1g/L solution tricaine (Ethyl 3-aminobenzoate methanesulfonate, Sigma) buffered to pH 7 with NaHCO3. […] Current measurements at controlled membrane potentials (voltage-clamp experiments) were performed using two intracellular microelectrodes in defolliculated Xenopus oocytes previously microinjected with 20 ng of cRNA. […] The oocytes were recorded in a chamber (Model RC-1Z, Warner Instrumenst, USA) under continuous superfusion. […]

- compound: "N[C@@H](CCC(=O)O)C(=O)O [glutamate, L-glutamate]"
  studyTarget: "coexpressed CrGluCl-E:CrGluCl-C"
  EC50 / µM: 36.5

----------
Tested on: coexpressed CrGluCl-A:CrGluCl-B
Test: Voltage-clamp of oocytes coexpressing CrGluCl-A and CrGluCl-B
Assay type: cell-based, Caligus rogercresseyi
Conditions: A:B ratio 4:1

- compound: "N[C@@H](CCC(=O)O)C(=O)O [glutamate, L-glutamate]"
  studyTarget: "coexpressed CrGluCl-A:CrGluCl-B"
  measurementUnits: "µM"
  EC50: 89

----------
Biological target: CrGluCl-A (Caligus rogercresseyi, UniProt A0A1W6LZ70)
Sequence (A0A1W6LZ70 entry or part of it): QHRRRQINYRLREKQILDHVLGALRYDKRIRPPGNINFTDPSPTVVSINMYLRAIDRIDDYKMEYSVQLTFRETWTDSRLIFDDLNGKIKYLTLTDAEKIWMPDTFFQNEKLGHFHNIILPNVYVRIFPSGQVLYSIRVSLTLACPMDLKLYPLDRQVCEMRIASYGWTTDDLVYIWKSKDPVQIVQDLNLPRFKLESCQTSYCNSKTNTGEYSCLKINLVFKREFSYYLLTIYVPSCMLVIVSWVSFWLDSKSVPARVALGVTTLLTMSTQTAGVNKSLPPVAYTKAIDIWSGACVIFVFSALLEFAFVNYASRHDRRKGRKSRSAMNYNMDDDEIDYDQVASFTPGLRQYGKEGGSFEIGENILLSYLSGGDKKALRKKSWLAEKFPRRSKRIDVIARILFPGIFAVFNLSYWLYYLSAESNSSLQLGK
Test: Two-electrode voltage-clamp of Xenopus oocytes expressing CrGluCl-A
Format: cell-based
Details: EC50 Glutamate, CrGluCl-A alone, currents at 60 mV, Hill fit
testReadout: EC50 (µM)

- compound: "N[C@@H](CCC(=O)O)C(=O)O [glutamate, L-glutamate]"
  reportedValue: 7.2

----------
System: coexpressed CrGluCl-A:CrGluCl-B
Experiment: Voltage-clamp of oocytes coexpressing CrGluCl-A and CrGluCl-B
Type: cell-based, Caligus rogercresseyi
Conditions: A:B ratio 1:1
testReadout: EC50 (µM)

- compound: "N[C@@H](CCC(=O)O)C(=O)O [glutamate, L-glutamate]"
  testReadout: "EC50"
  measurementUnits: "µM"
  reportedValue: 82

The measured values listed here are drawn from paper PMC10038264.
